Parameter viability, T/C: see the listing below.
Test system: OVCAR-5 complex spheroids, viability
Procedure Summary: Anticancer human tumor OVCAR-5 cell line growth inhibition;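 also: spheroids exposed to agents for seven days; 100% = DMSO vehicle control wells viability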
Conditions: second compound 10 µM; first compound 0.01 µM; hits give low values
Metric: viability, T/C (%)

[[record]]
compound = "CC[C@@]1(O)C(=O)OCc2c1cc1n(c2=O)Cc2cc3c(CN(C)C)c(O)ccc3nc2-1 + NC1CCC(NC2CC2c2ccccc2)CC1"
metric = "viability, T/C"
observed = 49.3

[[record]]
compound = "CC1COCCN1c1cc(-c2ccnn2C)c2ccnc(-c3ccn[nH]3)c2n1 (centres undefined) + NC1CC1c1ccc(-c2cccc(O)c2)cc1"
metric = "viability, T/C"
observed = 62.1

[[record]]
compound = "CC[C@@]1(O)C(=O)OCc2c1cc1n(c2=O)Cc2cc3c(CN(C)C)c(O)ccc3nc2-1 + NC1CC1c1ccc(-c2cccc(O)c2)cc1"
metric = "viability, T/C"
observed = 31.8

[[record]]
compound = "Nc1ncn(C2CC(O)C(CO)O2)c(=O)n1 (centres undefined) + NC1CCC(NC2CC2c2ccccc2)CC1"
metric = "viability, T/C"
observed = 83.1

[[record]]
compound = "Cn1ncnc1C1c2n[nH]c(=O)c3cc(F)cc(c23)NC1c1ccc(F)cc1 (centres undefined) + NC1CCC(NC2CC2c2ccccc2)CC1"
metric = "viability, T/C"
observed = 79

[[record]]
compound = "Cn1ncnc1C1c2n[nH]c(=O)c3cc(F)cc(c23)NC1c1ccc(F)cc1 (centres undefined) + NC1CC1c1ccc(-c2cccc(O)c2)cc1"
metric = "viability, T/C"
observed = 78.2

[[record]]
compound = "CC1COCCN1c1cc(-c2ccnn2C)c2ccnc(-c3ccn[nH]3)c2n1 (centres undefined) + NC1CCC(NC2CC2c2ccccc2)CC1"
metric = "viability, T/C"
observed = 65.9

[[record]]
compound = "Nc1ncn(C2CC(O)C(CO)O2)c(=O)n1 (centres undefined) + NC1CC1c1ccc(-c2cccc(O)c2)cc1"
metric = "viability, T/C"
observed = 80.1

[[record]]
compound = "CC(C)CC(NC(=O)C(Cc1ccccc1)NC(=O)c1cnccn1)B(O)O (centres undefined) + NC1CC1c1ccc(-c2cccc(O)c2)cc1"
metric = "viability, T/C"
observed = 27.6

